B1: KRT18 (parent)
chain: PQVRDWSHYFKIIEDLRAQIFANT

- Variants of: B1
- assay-method-text: protein stability index of a GFP-peptide fusion (GPS, HEK-293T) (PSI 1-6); higher = more stable;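 further: lentivirally expressed fusions sorted by FACS into six bins by GFP to DsRed ratio, PSI derived from sequencing read proportions per bin multiplied by bin number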
- measurement-parameters: c terminus: a fixed tail appended
recorded-metric: protein stability index
Keep the answer to the number alone.

// solved cases for protein stability index follow
variant-label | protein stability index
A22P | 2.4
F21N | 2.46
D5F | 1.88

Now, please, on to the next variant.
Sample E14M — what was its protein stability index?
2.32
